- systemTested: aldosterone receptor (Rattus norvegicus, UniProt P22199)
- Construct: centrifuged at 105,000 g for 30 minutes, and then a supernatant was collected as a renal soluble fraction
- Sequence (P22199 whole entry): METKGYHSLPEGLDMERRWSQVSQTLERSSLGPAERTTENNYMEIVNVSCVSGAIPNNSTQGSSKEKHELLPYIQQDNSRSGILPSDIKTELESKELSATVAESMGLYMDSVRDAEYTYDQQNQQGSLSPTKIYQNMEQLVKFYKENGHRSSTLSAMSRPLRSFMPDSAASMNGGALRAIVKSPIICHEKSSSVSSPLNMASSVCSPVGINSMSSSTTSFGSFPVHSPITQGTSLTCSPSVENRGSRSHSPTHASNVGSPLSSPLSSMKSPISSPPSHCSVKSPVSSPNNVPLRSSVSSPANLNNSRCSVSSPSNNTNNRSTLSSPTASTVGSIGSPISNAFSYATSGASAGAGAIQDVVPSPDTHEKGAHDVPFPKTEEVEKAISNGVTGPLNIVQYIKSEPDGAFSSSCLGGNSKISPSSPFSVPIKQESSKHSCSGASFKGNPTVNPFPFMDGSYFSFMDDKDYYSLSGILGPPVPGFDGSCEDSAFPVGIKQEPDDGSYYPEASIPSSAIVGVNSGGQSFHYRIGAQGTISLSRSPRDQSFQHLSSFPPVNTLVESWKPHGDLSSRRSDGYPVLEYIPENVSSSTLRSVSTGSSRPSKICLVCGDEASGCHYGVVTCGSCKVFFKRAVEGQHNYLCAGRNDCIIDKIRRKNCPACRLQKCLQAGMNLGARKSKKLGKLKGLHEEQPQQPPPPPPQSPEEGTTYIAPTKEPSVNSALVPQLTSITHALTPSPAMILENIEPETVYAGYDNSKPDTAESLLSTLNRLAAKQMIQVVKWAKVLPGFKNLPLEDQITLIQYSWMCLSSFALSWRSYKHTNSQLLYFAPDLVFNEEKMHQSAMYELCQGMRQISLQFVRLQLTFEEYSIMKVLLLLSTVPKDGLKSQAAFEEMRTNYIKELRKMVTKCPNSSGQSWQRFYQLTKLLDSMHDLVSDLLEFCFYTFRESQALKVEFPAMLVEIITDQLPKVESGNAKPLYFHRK
- assayProcedure: Binding inhibition test for aldosterone receptor ([3H]aldosterone, rat renal soluble fraction)
- testParameters: [3H]aldosterone 2 nM, rat renal soluble fraction, in the presence of 2 μM RU-486, 4° C. about 18 hours; read-out: MR IC50
quantity: pIC50
One number for each entry, as −log10 of the molar value.

The cases that follow already have their pIC50 on record.
- chemicalStructure: "CCc1ccccc1-c1ccc(C(=O)Nc2ccc(S(N)(=O)=O)c(OC)c2)cc1"
  quantity: "pIC50"
  assayValue: 6.28
- chemicalStructure: "Cn1nccc1CNCc1cc(C(=O)Nc2ccc(S(C)(=O)=O)cc2)ccc1-c1ccccc1OC(F)(F)F"
  quantity: "pIC50"
  assayValue: 5.54
- chemicalStructure: "COc1cc(NC(=O)c2ccc(-c3ccccc3C(F)(F)F)c(CNCC(F)F)c2)ccc1S(N)(=O)=O"
  quantity: "pIC50"
  assayValue: 6.00
- chemicalStructure: "COc1cc(NC(=O)c2ccc(-c3ccc(N)cc3C(F)(F)F)c(C)c2)ccc1S(N)(=O)=O"
  quantity: "pIC50"
  assayValue: 6.43
- chemicalStructure: "COc1cc(NC(=O)c2ccc(-c3ccccc3OC(F)(F)F)c(N)c2)ccc1S(N)(=O)=O"
  quantity: "pIC50"
  assayValue: 6.62
- chemicalStructure: "COc1cc(NC(=O)c2ccc(-c3ccccc3C(F)(F)F)c(CO)c2)ccc1S(N)(=O)=O"
  quantity: "pIC50"
  assayValue: 6.66
- chemicalStructure: "COCc1ccccc1-c1ccc(C(=O)Nc2ccc(S(N)(=O)=O)c(OC)c2)cc1"
  quantity: "pIC50"
  assayValue: 5.52
- chemicalStructure: "COc1cc(NC(=O)c2ccc(-c3ccccc3C(F)(F)F)c(OCCOCc3ccccc3)c2)ccc1S(N)(=O)=O"
  quantity: "pIC50"
  assayValue: 6.72

// switching to the query molecule
Challenge: # query: pIC50 | item COc1cc(C(=O)Nc2ccc(-c3ccccc3C(F)(F)F)c(CNCc3ccco3)c2)ccc1S(N)(=O)=O | system: aldosterone receptor (Rattus norvegicus, UniProt P22199)
Response given: 6.66

Hello, the source for this data is patent US20130116227A1, in case you need it.
